Species on record: Homo sapiens
TEST_NAME: Selectivity ratio of IC50 for human recombinant C-terminal hexahistidine tagged JAK3 JH1 catalytic domain (811 to 1124 residues) expressed in baculovirus infected Sf9 cells to IC50 for human recombinant N-terminal hexahistidine tagged JAK2 JH1 catalytic domain (835 to 1132 residues) expressed in baculovirus infected Sf9 cells
ASSAY_METRIC: Ratio IC50
Please give only the number in your answer, with no unit.

Input: Quick check: Ratio IC50 of CC(Oc1cc(-c2cn[nH]c2)cnc1N)c1cc(F)ccc1Cl (stereo not given) ?
Output: 60

Input: Try CC(Oc1cc(-c2cnn(C3CCNCC3)c2)cnc1N)c1cc(F)ccc1Cl (stereo not given) next.
Output: 86

Input: Try CC(Oc1cc(-c2cccc(N3CCNCC3)c2)cnc1N)c1cc(F)ccc1Cl (stereo not given) next.
Output: 107

Input: Try COc1ccc(F)c(Cl)c1C(C)Oc1cc(-c2cnn(C3CCNCC3)c2)cnc1N (stereo not given) next.
Output: 66

Input: Try COc1ccc(F)cc1C(C)Oc1cc(-c2cnn(C3CCNCC3)c2)cnc1N (stereo not given) next.
Output: 528
